Molecular target: PI 3-kinase beta (Homo sapiens (Human))
Sequence (P42338 whole entry, looked up): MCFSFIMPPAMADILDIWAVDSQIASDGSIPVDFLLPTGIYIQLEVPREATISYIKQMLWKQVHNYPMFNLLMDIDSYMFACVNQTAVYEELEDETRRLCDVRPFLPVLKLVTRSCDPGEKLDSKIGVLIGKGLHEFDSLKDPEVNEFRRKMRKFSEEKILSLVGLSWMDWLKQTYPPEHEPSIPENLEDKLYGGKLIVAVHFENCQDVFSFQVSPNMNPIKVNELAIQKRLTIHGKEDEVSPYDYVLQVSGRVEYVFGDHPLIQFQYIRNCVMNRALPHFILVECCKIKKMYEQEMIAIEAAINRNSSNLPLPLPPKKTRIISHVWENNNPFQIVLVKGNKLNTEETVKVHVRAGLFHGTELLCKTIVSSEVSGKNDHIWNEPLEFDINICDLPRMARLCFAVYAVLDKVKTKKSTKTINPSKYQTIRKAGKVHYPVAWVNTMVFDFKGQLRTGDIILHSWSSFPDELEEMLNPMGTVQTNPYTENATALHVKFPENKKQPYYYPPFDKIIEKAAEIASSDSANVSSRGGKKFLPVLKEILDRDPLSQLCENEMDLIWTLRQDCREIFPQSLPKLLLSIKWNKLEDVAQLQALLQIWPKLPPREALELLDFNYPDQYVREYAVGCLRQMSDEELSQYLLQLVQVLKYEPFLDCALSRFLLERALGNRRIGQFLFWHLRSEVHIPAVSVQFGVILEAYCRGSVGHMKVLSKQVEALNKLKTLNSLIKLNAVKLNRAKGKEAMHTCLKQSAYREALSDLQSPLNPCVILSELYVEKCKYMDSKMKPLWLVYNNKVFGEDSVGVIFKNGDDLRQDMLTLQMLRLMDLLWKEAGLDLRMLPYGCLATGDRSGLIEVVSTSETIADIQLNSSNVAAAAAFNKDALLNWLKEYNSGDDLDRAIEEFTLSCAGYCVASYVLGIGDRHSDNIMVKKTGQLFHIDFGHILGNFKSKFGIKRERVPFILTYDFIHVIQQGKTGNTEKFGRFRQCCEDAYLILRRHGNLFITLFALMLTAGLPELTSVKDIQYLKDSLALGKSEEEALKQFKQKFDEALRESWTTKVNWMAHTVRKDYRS
Sequence (P27986 whole entry partner, looked up): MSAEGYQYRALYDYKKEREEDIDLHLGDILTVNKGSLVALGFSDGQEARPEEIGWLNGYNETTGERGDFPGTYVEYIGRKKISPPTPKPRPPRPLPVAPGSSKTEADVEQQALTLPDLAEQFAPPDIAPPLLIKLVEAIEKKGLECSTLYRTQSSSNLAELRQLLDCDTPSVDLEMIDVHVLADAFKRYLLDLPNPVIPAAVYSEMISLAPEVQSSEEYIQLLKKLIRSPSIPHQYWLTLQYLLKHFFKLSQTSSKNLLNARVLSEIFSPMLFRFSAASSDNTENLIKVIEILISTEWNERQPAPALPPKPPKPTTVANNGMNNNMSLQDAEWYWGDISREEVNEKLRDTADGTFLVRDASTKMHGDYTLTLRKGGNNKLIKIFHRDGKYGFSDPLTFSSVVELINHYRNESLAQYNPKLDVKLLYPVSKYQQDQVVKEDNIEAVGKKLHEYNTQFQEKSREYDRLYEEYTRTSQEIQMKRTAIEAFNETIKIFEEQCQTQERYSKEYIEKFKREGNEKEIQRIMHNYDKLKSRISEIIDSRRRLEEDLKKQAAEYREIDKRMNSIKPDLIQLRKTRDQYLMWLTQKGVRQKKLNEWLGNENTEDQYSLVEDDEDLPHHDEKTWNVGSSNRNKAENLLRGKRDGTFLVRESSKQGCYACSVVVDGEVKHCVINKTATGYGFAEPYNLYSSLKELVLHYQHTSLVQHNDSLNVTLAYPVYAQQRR
Structures can show the parent of a compound that is named as a salt.
pIC50 for assorted compounds
Would you please state pIC50, meaning minus log10 of the concentration in mol/L, as a bare number?

Cc1cc(-c2cc(-c3cc(S(=O)(=O)NC[C@@H]4CCCO4)ccc3C)cnc2N)on1 : 5.40
Cc1cc(-c2cc(-c3cc(S(=O)(=O)NCC(F)(F)F)ccc3C)cnc2N)on1 : 5.43
Cc1ncc(-c2cc(-c3cc(S(=O)(=O)NCC(C)(C)CO)ccc3C)cnc2N)s1 : 5.68

Param readout= pIC50; system= PI 3-kinase beta (Homo sapiens (Human)); entry= Cc1ncc(-c2cc(-c3cc(S(=O)(=O)NCC4CCCOC4)ccc3C)cnc2N)o1 (stereo not shown) ; returns value.
6.10

Param readout= pIC50; system= PI 3-kinase beta (Homo sapiens (Human)); entry= Cc1cc(-c2cc(-c3cc(S(=O)(=O)N4C[C@H](C)[C@@H](O)C4)ccc3C)cnc2N)on1 (relative stereo) ; returns value.
5.29

Param readout= pIC50; system= PI 3-kinase beta (Homo sapiens (Human)); entry= `Cc1ncc(-c2cc(-c3cc(S(=O)(=O)NCC4(O)CCOCC4)ccc3C)cnc2N)o1` ; returns value.
5.08

Param readout= pIC50; system= PI 3-kinase beta (Homo sapiens (Human)); entry= Cc1ncc(-c2cc(-c3cc(S(=O)(=O)NC4CCC(O)(C(F)(F)F)C4)ccc3C)cnc2N)o1 (stereo not shown) ; returns value.
5.92

Param readout= pIC50; system= PI 3-kinase beta (Homo sapiens (Human)); entry= `Cc1cc(-c2cc(-c3cc(S(=O)(=O)N[C@H]4CC[C@H](O)CC4)ccc3C)cnc2N)ccn1` ; returns value.
5.14

Param readout= pIC50; system= PI 3-kinase beta (Homo sapiens (Human)); entry= Cc1ncc(-c2cc(-c3cc(S(=O)(=O)NC4CC5(CC(O)C5)C4)ccc3C)cnc2N)s1 (stereo not shown) ; returns value.
6.35

Param readout= pIC50; system= PI 3-kinase beta (Homo sapiens (Human)); entry= `Cc1ncc(-c2cc(-c3cc(S(=O)(=O)NCCO)ccc3C)cnc2N)s1` ; returns value.
5.47

Param readout= pIC50; system= PI 3-kinase beta (Homo sapiens (Human)); entry= `Cc1cccc(NS(=O)(=O)c2ccc(C)c(-c3cnc(N)c(-c4cnn(C)c4)c3)c2)n1` ; returns value.
5.82

Param readout= pIC50; system= PI 3-kinase beta (Homo sapiens (Human)); entry= `Cc1ncc(-c2cc(-c3cc(S(=O)(=O)NCC4(O)COC4)ccc3C)cnc2N)s1` ; returns value.
5.52

Param readout= pIC50; system= PI 3-kinase beta (Homo sapiens (Human)); entry= `Cc1cc(-c2cc(-c3cc(S(=O)(=O)N4CC(C)(O)C4)ccc3C)cnc2N)on1` ; returns value.
5.42

Param readout= pIC50; system= PI 3-kinase beta (Homo sapiens (Human)); entry= `Cc1noc(-c2cc(-c3cc(S(=O)(=O)NCC(C)(C)O)c(C)cc3F)cnc2N)n1` ; returns value.
5.05

Param readout= pIC50; system= PI 3-kinase beta (Homo sapiens (Human)); entry= Cc1cc(-c2cc(-c3cc(S(=O)(=O)N4CC[C@H](N(C)C)C4)ccc3C)cnc2N)on1 [Example 19.22, acetic acid salt] ; returns value.
5.24

Param readout= pIC50; system= PI 3-kinase beta (Homo sapiens (Human)); entry= `Cc1nnc(-c2cc(-c3cc(S(=O)(=O)NCCC(C)(C)O)ccc3C)cnc2N)o1` ; returns value.
5.35

----------
pIC50 for assorted compounds
Target: UniProt:Q9UBF8
pIC50: −log10 of the molar value.

Cc1noc(-c2cc(-c3cc(S(=O)(=O)N[C@@H]4CCNC(=O)C4)ccc3C)cnc2N)n1 : < 5.00
Cc1noc(-c2cc(-c3cc(S(=O)(=O)NC(CO)C4CCOC4)ccc3C)cnc2N)n1 (stereo not drawn) : < 5.00

Proceeding to the next compound to report its pIC50.
Please report the recorded pIC50 for `Cc1ccc(S(=O)(=O)NCC(C)(C)O)cc1-c1cnc(N)c(-c2ccn(C)n2)c1` .
< 5.00

----------
Counter-ions that a name gives are not always drawn.
The following compounds each carry a recorded IC50 for PI 4-kinase beta (Homo sapiens (Human), UniProt Q9UBF8).
Field format: number, assumed µM, no unit text.

Cc1ncc(-c2cc(-c3cc(S(=O)(=O)NCCC(C)(C)O)ccc3C)cnc2N)s1 [Example 4] : 1.44
Cc1cc(-c2cc(-c3cc(S(=O)(=O)N4CC(N(C)C)C4)ccc3C)cnc2N)on1 [Example 19.19, acetic acid salt] : 8.5

Proceeding to the next compound to report its IC50.
Param readout= IC50; system= PI 4-kinase beta (Homo sapiens (Human), UniProt Q9UBF8); entry= Cc1noc(-c2cc(-c3cc(S(=O)(=O)NCC(C)(C)O)c(C)cc3C)cnc2N)n1 [Example 100] ; returns value.
4.25

----------
Target: PI 4-kinase beta (Homo sapiens (Human))
Sequence (Q9UBF8 whole entry): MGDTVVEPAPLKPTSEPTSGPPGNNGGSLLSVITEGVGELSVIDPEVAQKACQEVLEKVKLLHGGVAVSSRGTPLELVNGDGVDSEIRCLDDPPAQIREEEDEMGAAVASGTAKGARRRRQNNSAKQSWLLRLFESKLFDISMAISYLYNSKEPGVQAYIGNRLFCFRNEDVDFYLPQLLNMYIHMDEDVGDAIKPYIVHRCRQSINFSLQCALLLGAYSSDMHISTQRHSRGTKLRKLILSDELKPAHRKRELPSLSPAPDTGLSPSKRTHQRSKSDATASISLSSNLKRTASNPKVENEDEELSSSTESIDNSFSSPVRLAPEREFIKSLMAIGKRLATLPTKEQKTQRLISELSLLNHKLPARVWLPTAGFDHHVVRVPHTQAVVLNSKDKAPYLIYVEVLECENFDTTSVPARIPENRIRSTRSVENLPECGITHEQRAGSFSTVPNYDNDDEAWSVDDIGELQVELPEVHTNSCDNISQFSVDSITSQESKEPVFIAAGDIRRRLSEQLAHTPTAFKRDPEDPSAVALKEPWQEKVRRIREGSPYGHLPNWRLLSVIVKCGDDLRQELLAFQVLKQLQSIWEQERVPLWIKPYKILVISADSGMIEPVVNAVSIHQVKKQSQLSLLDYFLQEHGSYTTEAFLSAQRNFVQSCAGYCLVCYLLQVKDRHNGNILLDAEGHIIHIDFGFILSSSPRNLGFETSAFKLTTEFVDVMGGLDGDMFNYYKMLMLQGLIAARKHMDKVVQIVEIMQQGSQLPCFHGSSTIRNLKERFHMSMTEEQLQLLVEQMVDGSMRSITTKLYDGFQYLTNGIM
Counter-ions that a name gives are not always drawn.
IC50 for assorted compounds

Use these answered entries as a reference point.
COC1(C)CN(S(=O)(=O)c2ccc(C)c(-c3cnc(N)c(-c4nc(C)no4)c3)c2)C1 : > 10 µM
Cc1cccc(NS(=O)(=O)c2ccc(C)c(-c3cnc(N)c(-c4nc(C)no4)c3)c2)n1 : > 10 µM

Proceeding to the next compound to report its IC50.
Param readout= IC50; system= PI 4-kinase beta (Homo sapiens (Human)); entry= Cc1noc(-c2cc(-c3cc(S(=O)(=O)NCC(C)(C)CO)ccc3C)cnc2N)n1 [Example 37.18, hydrochloride] ; returns value.
> 10 µM
